// data source = ChEMBL document CHEMBL3988442

- System: Wolbachia pipientis
- test: Anti-Wolbachia Cell-Based Screen
- Assay type: functional
- Set-up: scale not given: in the data most compounds retested in dose-response had high values
- appliedConditions: 5 µM
The campaign covered roughly 48,000 compounds. About 13,000 (27%) showed an effect of 50% or more. The list shows a part of the results.
quantity: Percent Effect (%)
The response must be a number in % with no trailing unit.

CSCCC(=O)N1CCCC(c2nccn2Cc2ccncc2)C1 (centres undefined); -15.94
CCN1CCN(S(=O)(=O)N2CCC(OC)CC2)[C@H]2CS(=O)(=O)C[C@H]21; -12.77
Cl.Cl.Cn1cnc2c(N3CCOCC3)nc(C3CCNCC3)cc21; -9.589

Input: Could you tell me which Percent Effect is on file for CCOc1cc(C(=O)N2CCCC(c3cc(C(N)=O)[nH]n3)C2)ccn1 (centres undefined) ?
Output: -0.59

Input: Okay, and CN1CCCC1c1cc2cccnc2n1Cc1ccc(F)cc1.Cl (centres undefined) ?
Output: 120.9
